biological target: human ether-à-go-go-related gene (hERG) potassium channel (human); experiment: primary screen, population patch clamp on CHO cells stably expressing hERG; higher = less effect of the substance
Among all 310,000 compounds or so, about 2,200 (0.71%) showed an effect of 50% or more. The effect is printed as a negative number. This excerpt belongs to a sample that is enriched for strong results.
# hERG current change (%, negative = inhibition) at 1uM per entry
Report as a plain number; the unit % is understood.

INSERT INTO assay_data (compound, unitabbreviation, readoutnumber) VALUES
  ('Cc1ccccc1NC(=O)C1CCN(c2cc(-c3ccccc3)nc3ncnn23)CC1', '%', 5.72),
  ('O=c1c2[nH]c3ccc(F)cc3c2ncn1CC1CCCO1 (centres unmarked)', '%', 4.81),
  ('COc1cccc(C(=O)NCCCN2CCN(CCCNC(=O)c3cccc(OC)c3)CC2)c1', '%', -65.2),
  ('CC(=O)c1ccc(S(=O)(=O)N2CCCC(N(C)CCc3ccccc3)C2)cc1 (centres unmarked)', '%', -78.7),
  ('Cc1cc(C(=O)N2CCCC(N3CCN(c4ccccc4C)CC3)C2)n(C)n1 (centres unmarked)', '%', -87.7);

response.value for C[C@@H]1CC[C@@]2(O[C@@H](CCO)C[C@@H](O)[C@@H]2O)O1 (field: hERG current change (%, negative = inhibition) at 1uM) = 20.7

response.value for CCCCCNC(=O)[C@@H]1CSC2c3ccccc3C(=O)N21 (some centres unmarked) (field: hERG current change (%, negative = inhibition) at 1uM) = 14

response.value for COc1ccc(CCN(C)C2CCCN(S(C)(=O)=O)C2)cc1OC (centres unmarked) (field: hERG current change (%, negative = inhibition) at 1uM) = 6.5

response.value for COc1ccc(CCN(C)C2CCCN(S(=O)(=O)c3ccccc3)C2)cc1OC (centres unmarked) (field: hERG current change (%, negative = inhibition) at 1uM) = -64.9

response.value for COc1ccc(CN(C(=O)COc2ccccc2)c2ccccc2C(=O)O)cc1 (field: hERG current change (%, negative = inhibition) at 1uM) = 22

response.value for CC1CC(C)CN(CCCNC(=O)Cn2cccc2C(=O)c2ccccc2)C1 (centres unmarked) (field: hERG current change (%, negative = inhibition) at 1uM) = -25

response.value for Cc1ccc2[nH]c3c(=O)n(CCN4CCOCC4)cnc3c2c1 (field: hERG current change (%, negative = inhibition) at 1uM) = 6.2

====

molecular target: human ether-à-go-go-related gene (hERG) potassium channel (human, UniProt Q12809); assay: primary screen, population patch clamp on CHO cells stably expressing hERG; higher = less effect of the substance
Sequence (Q12809 whole entry, looked up): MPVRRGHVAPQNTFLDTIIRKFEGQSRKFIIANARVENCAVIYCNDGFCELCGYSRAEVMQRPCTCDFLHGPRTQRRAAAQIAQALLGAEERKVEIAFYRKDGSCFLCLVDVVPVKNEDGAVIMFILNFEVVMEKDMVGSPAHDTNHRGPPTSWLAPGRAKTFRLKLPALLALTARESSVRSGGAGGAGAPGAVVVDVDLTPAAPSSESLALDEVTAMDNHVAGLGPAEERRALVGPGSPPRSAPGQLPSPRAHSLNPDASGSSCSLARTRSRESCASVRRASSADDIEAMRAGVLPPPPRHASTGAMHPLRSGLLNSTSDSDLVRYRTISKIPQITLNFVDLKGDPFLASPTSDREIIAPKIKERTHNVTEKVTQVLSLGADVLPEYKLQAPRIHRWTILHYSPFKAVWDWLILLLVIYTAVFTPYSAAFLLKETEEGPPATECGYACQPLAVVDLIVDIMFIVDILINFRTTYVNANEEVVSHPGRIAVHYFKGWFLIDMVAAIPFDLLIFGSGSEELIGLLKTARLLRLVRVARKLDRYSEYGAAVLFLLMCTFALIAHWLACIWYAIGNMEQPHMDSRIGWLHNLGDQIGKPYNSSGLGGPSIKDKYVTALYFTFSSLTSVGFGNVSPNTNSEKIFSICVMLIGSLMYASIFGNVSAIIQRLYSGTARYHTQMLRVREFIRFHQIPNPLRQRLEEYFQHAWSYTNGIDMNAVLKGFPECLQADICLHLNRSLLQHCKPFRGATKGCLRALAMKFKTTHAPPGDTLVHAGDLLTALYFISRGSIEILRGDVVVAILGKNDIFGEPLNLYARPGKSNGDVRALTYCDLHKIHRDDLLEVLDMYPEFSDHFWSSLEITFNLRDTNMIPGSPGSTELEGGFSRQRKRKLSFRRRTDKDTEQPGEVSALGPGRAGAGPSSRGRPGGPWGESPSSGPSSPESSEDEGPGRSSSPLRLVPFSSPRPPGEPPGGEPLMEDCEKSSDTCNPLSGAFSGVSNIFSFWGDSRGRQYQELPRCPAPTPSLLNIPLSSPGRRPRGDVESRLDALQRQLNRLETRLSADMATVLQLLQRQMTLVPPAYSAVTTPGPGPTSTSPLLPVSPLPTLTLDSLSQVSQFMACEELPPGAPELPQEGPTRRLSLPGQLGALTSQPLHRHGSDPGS
About 2,200 (0.71%) of roughly 310,000 compounds showed an effect of 50% or more. Effects have a minus sign here. This excerpt belongs to a sample that is enriched for strong results.
# hERG current change (%, negative = inhibition) at 1uM per entry
Report as a plain number; the unit % is understood.

// solved cases for hERG current change (%, negative = inhibition) at 1uM follow
INSERT INTO measurements (compound, readoutnumber) VALUES
  ('CCOc1ccc(C(=O)N2CCN(c3ccccc3)CC2)cc1', -0.559),
  ('Cc1cc(N)n(-c2cc(C)c3ccccc3n2)n1', 9.59),
  ('CN(CCC#N)C(=O)COc1ccc(Br)cc1Cl', 3.5),
  ('CCOc1ccc(CN2CCC(Cc3ccccc3)CC2)cc1', -76.8),
  ('CSc1ccc(CN2CCC(Cc3ccccc3)CC2)cc1', -29.6);

response.value for CCOc1ccc(C(=O)N2CCN(Cc3ccccc3)CC2)cc1 (field: hERG current change (%, negative = inhibition) at 1uM) = -60.3

response.value for CCS(=O)(=O)NCCCc1ccccc1 (field: hERG current change (%, negative = inhibition) at 1uM) = -5.33

response.value for CCCCOc1ccc(CSC2=NCCN2)cc1[N+](=O)[O-].Cl (field: hERG current change (%, negative = inhibition) at 1uM) = -22.3

response.value for CCOc1ccc(CSC2=NCCN2)cc1Cl.Cl (field: hERG current change (%, negative = inhibition) at 1uM) = -4.54

response.value for CCOc1ccc(CN2CCN(C(=O)c3ccccc3)CC2)cc1 (field: hERG current change (%, negative = inhibition) at 1uM) = -1.03

response.value for CC(=O)Nc1ccc(NC(=O)COc2ccc(S(=O)(=O)NC(C)c3ccccc3)cc2)cc1 (centres unmarked) (field: hERG current change (%, negative = inhibition) at 1uM) = 17.5
